- System: NCI-H929 complex spheroids, viability % test/control
- experimental-details: Anticancer human tumor NCI-H929 cell line growth inhibition [RAS];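 also: compound exposure lasted seven days before viability was read; 100% = DMSO vehicle control viability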
- condition-parameters: second compound 0.03 µM; first compound 0.0316 µM; active compounds read low
Rule for this label: 1 (yes) means viability, T/C is less than 60%; 0 (no) means viability, T/C is at least 60%.

| molecule | assigned-class |
| --- | --- |
| NC1c2ccccc2OC12CCN(c1cnc3c(N4CCCc5ncccc54)n[nH]c3n1)CC2 (centres undefined) + CCn1c(-c2cc(N3CCN(C)CC3)cnc2C(C)OC)c2c3cc(ccc31)-c1csc(n1)CC(NC(=O)C1CC1C)C(=O)N1CCCC(N1)C(=O)OCC(C)(C)C2 | 1 (yes) |

Determine if C=CC(=O)Nc1cc(Nc2nccc(-c3cn(C)c4ccccc34)n2)c(OC)cc1N(C)CCN(C)C + CCn1c(-c2cccnc2C(C)OC)c2c3cc(ccc31)N1CCOC(CC(NC(=O)C(C(C)C)N(C)C(=O)C3(F)CCN(C(=O)C#CC(C)(C)N(C)C)CC3)C(=O)N3CCCC(N3)C(=O)OCC(C)(C)C2)C1 shows viability, T/C strictly lower than 60%.
0 (no)

Determine if CC(C)NCC(C(=O)N1CCN(c2ncnc3c2C(C)CC3O)CC1)c1ccc(Cl)cc1 (centres undefined) + CCn1c(-c2cc(N3CCN(C)CC3)cnc2C(C)OC)c2c3cc(ccc31)-c1csc(n1)CC(NC(=O)C1CC1C)C(=O)N1CCCC(N1)C(=O)OCC(C)(C)C2 shows viability, T/C strictly lower than 60%.
1 (yes)

Determine if O=C(c1ccc(F)c(F)c1Nc1ccc(I)cc1F)N1CC(O)([C@@H]2CCCCN2)C1 + CCn1c(-c2cccnc2C(C)OC)c2c3cc(ccc31)N1CCOC(CC(NC(=O)C(C(C)C)N(C)C(=O)C3(F)CCN(C(=O)C#CC(C)(C)N(C)C)CC3)C(=O)N3CCCC(N3)C(=O)OCC(C)(C)C2)C1 shows viability, T/C strictly lower than 60%.
0 (no)

Determine if Cc1nc(N2CCC3(CC2)COC(C)C3N)c(CO)nc1Sc1ccnc(N)c1Cl (centres undefined) + CCn1c(-c2cccnc2C(C)OC)c2c3cc(ccc31)N1CCOC(CC(NC(=O)C(C(C)C)N(C)C(=O)C3(F)CCN(C(=O)C#CC(C)(C)N(C)C)CC3)C(=O)N3CCCC(N3)C(=O)OCC(C)(C)C2)C1 shows viability, T/C strictly lower than 60%.
0 (no)

Determine if CCC(CC)c1cc(NC2CCC(N)C2)n2nccc2n1 (centres undefined) + CCn1c(-c2cc(N3CCN(C)CC3)cnc2C(C)OC)c2c3cc(ccc31)-c1csc(n1)CC(NC(=O)C1CC1C)C(=O)N1CCCC(N1)C(=O)OCC(C)(C)C2 shows viability, T/C strictly lower than 60%.
1 (yes)

Determine if CC(Nc1ccc2c(c1)OCCn1cc(N3C(=O)OCC3C(F)F)nc1-2)C(N)=O (centres undefined) + CCn1c(-c2cc(N3CCN(C)CC3)cnc2C(C)OC)c2c3cc(ccc31)-c1csc(n1)CC(NC(=O)C1CC1C)C(=O)N1CCCC(N1)C(=O)OCC(C)(C)C2 shows viability, T/C strictly lower than 60%.
1 (yes)

* * *

Task for the reader: assign each of the following compounds its reported viability, T/C.
- System: NCI-H929 complex spheroids, viability % test/control
- experimental-details: Anticancer human tumor NCI-H929 cell line growth inhibition [RAS];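 also: compound exposure lasted seven days before viability was read; 100% = DMSO vehicle control viability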
- condition-parameters: second compound 0.1 µM; first compound 10 µM; active compounds read low
Answers are plain numbers, in %.

Some compounds with recorded viability, T/C:
| compound | target-under-test | measurement-label | data-value |
| --- | --- | --- | --- |
| NC1c2ccccc2OC12CCN(c1cnc3c(N4CCCc5ncccc54)n[nH]c3n1)CC2 (stereo unspecified) + C#Cc1c(F)ccc2cc(O)cc(-c3ncc4c(N5CC6CCC(C5)N6)nc(OCC56CCCN5CC(F)C6)nc4c3F)c12 | NCI-H929 complex spheroids, viability % test/control | viability, T/C | 64.8 |
| CCC(CC)c1cc(NC2CCC(N)C2)n2nccc2n1 (stereo unspecified) + C=CC(=O)N1CCN(c2nc(OCC3CCCN3C)nc3c(F)c(-c4nc(N)cc(C)c4C(F)(F)F)c(Cl)cc23)C(C)C1 | NCI-H929 complex spheroids, viability % test/control | viability, T/C | 0.59 |
| CC(C)NCC(C(=O)N1CCN(c2ncnc3c2C(C)CC3O)CC1)c1ccc(Cl)cc1 (stereo unspecified) + C#Cc1c(F)ccc2cc(O)cc(-c3ncc4c(N5CC6CCC(C5)N6)nc(OCC56CCCN5CC(F)C6)nc4c3F)c12 | NCI-H929 complex spheroids, viability % test/control | viability, T/C | 14.1 |
| CC1(O)CCCC1n1c(=O)c(C(F)F)cc2cnc(NC3CCN(S(C)(=O)=O)CC3)nc21 (stereo unspecified) + C=CC(=O)N1CCN(c2nc(OCC3CCCN3C)nc3c(F)c(-c4nc(N)cc(C)c4C(F)(F)F)c(Cl)cc23)C(C)C1 | NCI-H929 complex spheroids, viability % test/control | viability, T/C | 0.18 |
| CC(=O)OC12COC1CC(O)C1(C)C(=O)C(O)C3=C(C)C(OC(=O)C(O)C(NC(=O)OC(C)(C)C)c4ccccc4)CC(O)(C(OC(=O)c4ccccc4)C21)C3(C)C (stereo unspecified) + C#Cc1c(F)ccc2cc(O)cc(-c3ncc4c(N5CC6CCC(C5)N6)nc(OCC56CCCN5CC(F)C6)nc4c3F)c12 | NCI-H929 complex spheroids, viability % test/control | viability, T/C | 0.89 |

Kindly consider the entry below.
So, Cc1nc(N2CCC3(CC2)COC(C)C3N)c(CO)nc1Sc1ccnc(N)c1Cl (stereo unspecified) + C#Cc1c(F)ccc2cc(O)cc(-c3ncc4c(N5CC6CCC(C5)N6)nc(OCC56CCCN5CC(F)C6)nc4c3F)c12 ? Its viability, T/C was 107

* * *

- Test system: NCI-H929 complex spheroids, viability % test/control
- experimental-details: Anticancer human tumor NCI-H929 cell line growth inhibition [RAS];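 also: compound exposure lasted seven days before viability was read; 100% = DMSO vehicle control viability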
- condition-parameters: second compound 0.1 µM; first compound 0.0316 µM; active compounds read low
measurement-label: viability, T/C (%)
Answers are plain numbers, in %.

| molecule | target-under-test | unit-string | viability, T/C |
| --- | --- | --- | --- |
| CCC(CC)c1cc(NC2CCC(N)C2)n2nccc2n1 (stereo not drawn) + C#Cc1c(F)ccc2cc(O)cc(-c3ncc4c(N5CC6CCC(C5)N6)nc(OCC56CCCN5CC(F)C6)nc4c3F)c12 | NCI-H929 complex spheroids, viability % test/control | % | 97.2 |
| CC(Nc1ccc2c(c1)OCCn1cc(N3C(=O)OCC3C(F)F)nc1-2)C(N)=O (stereo not drawn) + C#Cc1c(F)ccc2cc(O)cc(-c3ncc4c(N5CC6CCC(C5)N6)nc(OCC56CCCN5CC(F)C6)nc4c3F)c12 | NCI-H929 complex spheroids, viability % test/control | % | 95 |

Kindly consider the entry below.
So, O=C(c1ccc(F)c(F)c1Nc1ccc(I)cc1F)N1CC(O)([C@@H]2CCCCN2)C1 + C#Cc1c(F)ccc2cc(O)cc(-c3ncc4c(N5CC6CCC(C5)N6)nc(OCC56CCCN5CC(F)C6)nc4c3F)c12 ? Its viability, T/C was 84.4

* * *

- Test system: NCI-H929 complex spheroids, viability % test/control
- experimental-details: Anticancer human tumor NCI-H929 cell line growth inhibition [RAS]; active = viability on the fitted dose curve at most 10% of control; inactive = the rest;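 also: compound exposure lasted seven days before viability was read; 100% = DMSO vehicle control viability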
- condition-parameters: second compound 1 µM; first compound 3.16 µM
- Description: RAS pathway inhibitors in Combinations in Complex Spheroids A high-throughput screen of multi-cell type tumor spheroids was designed to identify active combinations of RAS pathway inhibitors and targeted small molecules. Complex spheroids include a stromal component modeled by human endothelial cells (HUVEC) and fibroblasts modeled by human mesenchymal stem cells (MSCs). […] Compounds. […] If the clinical Cmax for an agent had not been determined, the highest concentration tested was 10 microM. […]
Pick one and only one: t = active, f = inactive

Worked examples, 2 molecules total:
| molecule | assigned-class |
| --- | --- |
| CC(C)NCC(C(=O)N1CCN(c2ncnc3c2C(C)CC3O)CC1)c1ccc(Cl)cc1 (stereo not drawn) + C#Cc1c(F)ccc2cc(O)cc(-c3ncc4c(N5CC6CCC(C5)N6)nc(OCC56CCCN5CC(F)C6)nc4c3F)c12 | f |
| CCC(CC)c1cc(NC2CCC(N)C2)n2nccc2n1 (stereo not drawn) + C=CC(=O)N1CCN(c2nc(OCC3CCCN3C)nc3c(F)c(-c4nc(N)cc(C)c4C(F)(F)F)c(Cl)cc23)C(C)C1 | t |

In this assay, the call recorded for C[C@@H](NC(=O)c1ncnc(N)c1Cl)c1ncc(C(=O)Nc2cc(C(F)(F)F)c(Cl)cn2)s1 + C=CC(=O)N1CCN(c2nc(OCC3CCCN3C)nc3c(F)c(-c4nc(N)cc(C)c4C(F)(F)F)c(Cl)cc23)C(C)C1 was what?
f
